# Test system: PC-3 prostate
# procedure-summary: NCI tumour cell line growth inhibition, 48 h
Please provide measured GI50 for the entries that follow.

Solved entries:
compound: COc1ccc(/C=N/C2=C(C#N)C(c3ccccc3)c3c(ccc4ccccc34)O2)cc1 (centres undefined)
obs-value: 1.22 µM
--
compound: O=C1OCC2=C1C(c1cccc(Cl)c1)c1cc3c(cc1N2CCO)OCO3 (centres undefined)
obs-value: 0.381 µM
--
compound: FC(F)(F)c1ccc(-c2cncn2-c2ccccc2)cc1
obs-value: 13 µM

Which GI50 reading was recorded for the compound `COC(=O)C1=C(O)[C@H](C(=O)OC)C2(O)[C@@H](C(=O)OC)[C@H]1C[C@@H](c1ccc(OC(=O)n3ccnc3)cc1)[C@@H]2C(=O)OC` ?
22.4 µM

====

# Tested on: UACC-257 melanoma
# procedure-summary: NCI tumour cell line growth inhibition, 48 h
Please provide measured TGI for the entries that follow.
Give bare numbers, in µM.

Solved entries:
molecule: CC1(C)C(OC(=O)c2ccccc2)C[C@]23CCC[C@](C)(C[C@@H](O)C12)C3 (stereo partly drawn)
result-units: µM
TGI: 35.5
//
molecule: CCOC(=O)C1=C(C)N(c2ccc(OC)cc2)C2(O)C=CC(=O)C3C(=O)N(c4ccccc4)C(=O)C132 (stereo not drawn)
result-units: µM
TGI: 11
//
molecule: Oc1ccc(N=Cc2ccc(C=Nc3ccc(O)cc3)cc2)cc1
result-units: µM
TGI: 32.4

Consider now this further molecule.
Write down the reported TGI of `COC(=O)[C@@H](C[C@H](Cc1ccccc1)NC(=O)c1csc([C@@H](C[C@H](C(C)C)N(C)C(=O)[C@@H](NC(=O)[C@H]2CCCCN2C)C(C)C)OC(C)=O)n1)NC(=O)OCc1ccccc1` , test system: UACC-257 melanoma.
2.59

====

# System: NCI-H226 lung
# procedure-summary: NCI tumour cell line growth inhibition, 48 h
Please provide measured TGI for the entries that follow.

Solved entries:
compound: COc1c2c(cc3nc4ccccc4nc13)CC[C@H](NC(C)=O)c1cc(=O)c(SC)ccc1-2
obs-value: 32.2 µM
--
compound: Cc1cccc(C)c1NC(=O)C(=O)C(C#N)c1ccccc1Cl (stereo not drawn)
obs-value: > 100 µM
--
compound: COc1ccc(/C=C/C(=O)c2cccc(B(O)O)c2)cc1O
obs-value: > 100 µM
--
compound: COc1ccc(C(=O)/C=C2\C(=O)Nc3ccc(Br)cc32)cc1
obs-value: 28.6 µM
--
compound: N#CC(=N)c1ncn(CCO)c1NC(=O)C(F)(F)F
obs-value: > 100 µM
--
compound: O=C(N=C1N(c2ccccc2)C(=O)C(=O)N1c1ccccc1)c1ccccc1
obs-value: 29.2 µM
--
compound: CCC12CCCN(Cc3ccccc3)C1c1c(n(C)c3ccccc13)[C@H](C(=O)OC)C2 (stereo partly drawn)
obs-value: > 239 µM
--
compound: COc1cc(O)c2c(=O)c(OC)c(-c3ccc(OC)c(OC)c3)oc2c1.[Co]
obs-value: > 100 µM

Please look at the items below and tell me TGI for each one, in order.
1. CCCCCCNC(=O)Nc1ccc2cc3ccc(NC(=O)NCCCCCC)cc3nc2c1
2. Cc1cc(C)c(OC(=O)Nc2cccc3ccccc23)c(-c2ccccc2)c1
3. CCCCc1ccc(Nc2nc(=S)c3ncn(COCCO)c3[nH]2)cc1
4. CC(=O)OC/C=C(\C)CCC(Br)C(C)(C)Br (stereo not drawn)
5. O=C(CC1(O)C(=O)Nc2c(Cl)cc(Cl)cc21)c1ccco1 (stereo not drawn)
6. Cc1nn2c(C(=O)N/N=C/c3ccccc3O)c(C)nc2s1

1. > 100 µM
2. 58.4 µM
3. > 100 µM
4. > 10 µM
5. 71.4 µM
6. > 100 µM

Please look at the items below and tell me TGI for each one, in order.
1. CC(C)(C)OC(=O)N1CCCC1=O
2. Cc1cc(O)c2c3c1C(=O)Oc1c(CO)c(O)c(C(=O)O)c(c1O3)C=NN=Cc1c3c(c(CO)c(O)c1C(=O)O)OC(=O)c1c(C)cc(O)c(c1O3)C=NN=C2

["> 10 µM", "> 100 µM"]

====

# Tested on: BT-549 breast
# procedure-summary: NCI tumour cell line growth inhibition, 48 h; in the data active = GI50 below about 0.43 µM; inactive = the rest
Allowed answers: active, inactive

compound: Cc1c2cnccc2c(C)c2c1c1cc(CO)ccc1n2C
assigned-label: inactive

// param item: C[C@]12CCC3c4ccc(O)cc4CCC3C1CC[C@@]2(O)C#Cc1ccc(C#C/C=C\C#Cc2ccccc2N)cc1 (stereo partly specified) ; yields the recorded call
inactive

// param item: `COc1ccc(S(=O)(=O)Nc2cc(/C=C\c3cc(OC)c(OC)c(OC)c3)cc(OC)c2OC)cc1` ; yields the recorded call
active

// param item: Cc1ccc(-c2cc(C(=O)N3N=C(c4ccc(N)cc4)CC3c3ccc(Cl)cc3)c3ccccc3n2)cc1 (stereo unspecified) ; yields the recorded call
inactive

// param item: `O[N+]1=CC=CCC1=S.On1ccccc1=S.[Zn]` ; yields the recorded call
inactive

// param item: `Cn1cc(C2=C(c3cn(CCSC(=N)N)c4ccccc34)C(=O)NC2=O)c2ccccc21` ; yields the recorded call
inactive

====

# Test system: HOP-92 NSCLC
# procedure-summary: NCI tumour cell line growth inhibition, 48 h
Rule: TGI under 10 µM gives not met, otherwise met.

The examples below pair each entry with its known result.
compound: C[C@@H](O)[C@H]1C(=O)N2C(C(=O)O)=C(SCCN=CN)C[C@H]12
assigned-label: not met
--
compound: Nc1nc2c(nc(N)n2Cc2ccccc2)c(=O)[nH]1
assigned-label: met
--
compound: CC(C)NCC(O)c1cc(OCc2ccccc2)c(OCc2ccccc2)cc1NC(=O)CCC(=O)O (stereo unspecified)
assigned-label: met
--
compound: O=C(/C(=C\c1ccccc1)CN1CCOCC1)c1ccc(Br)cc1
assigned-label: met
--
compound: NNC1=N/C(=C\c2ccccc2O)C(=O)N1
assigned-label: met

Does the compound OC1CC2CCCN(CCc3c1[nH]c1ccccc31)C2 (stereo unspecified) have recorded TGI that is 10 µM or more?
met

Does the compound `COc1c2c(cc3nc4ccccc4nc13)CC[C@H](NC(C)=O)c1cc(=O)c(SC)ccc1-2` have recorded TGI that is 10 µM or more?
met

Does the compound `CN1CCc2c(sc3ncn(N)c(=N)c23)C1` have recorded TGI that is 10 µM or more?
met

Does the compound `CCCCCCCCCCCC[n+]1c(C)cc(N)c2ccccc21` have recorded TGI that is 10 µM or more?
not met

Does the compound N#CC1(C#N)C2=C(CCCC2)NC(c2ccc(Br)cc2)C1(C#N)C#N (stereo unspecified) have recorded TGI that is 10 µM or more?
met

Does the compound `Cc1nc2cc(-n3c(-c4ccc(F)cc4)nc4ccccc4c3=O)ccc2n1Cc1ccccc1` have recorded TGI that is 10 µM or more?
not met

====

# Tested on: K-562 leukemia
# procedure-summary: NCI tumour cell line growth inhibition, 48 h
Please provide measured TGI for the entries that follow.
One number for each entry, in µM.

Solved entries:
compound: CC(=O)N=C1C=C(NC(C)=O)C(=O)c2ccccc21
tested-system: K-562 leukemia
result-units: µM
TGI: 7.01

compound: Clc1ccc(/C=C2\CCCC3C2=Nc2ccccc2NC3c2ccc(Cl)cc2)cc1 (stereo not given)
tested-system: K-562 leukemia
result-units: µM
TGI: 27.8

compound: CC(=O)Oc1ccc(O)c2c1CCCC2
tested-system: K-562 leukemia
result-units: µM
TGI: 54.6

compound: CC(=O)c1cc2c(c(O)c1C)C(=O)C(=O)c1c(O)cccc1-2
tested-system: K-562 leukemia
result-units: µM
TGI: 1.05

compound: Cn1cnc([N+](=O)[O-])c1[Se]c1ncnc2nc[nH]c12
tested-system: K-562 leukemia
result-units: µM
TGI: 25.6

Consider now this further compound.
Which TGI reading was recorded for the compound `N#Cc1c(N)nc(Nc2cccc3ccccc23)c(C#N)c1C#N` ?
9.64

====

# System: SK-MEL-28 melanoma
# procedure-summary: NCI tumour cell line growth inhibition, 48 h; in the data active = GI50 below about 0.43 µM; inactive = the rest
Allowed answers: active, inactive

compound: CC(=O)c1cc2c(c(O)c1C)C(=O)C(=O)c1c(O)cccc1-2
assigned-label: active

// param item: `Cc1nc2cc(-n3c(-c4ccc(F)cc4)nc4ccccc4c3=O)ccc2n1Cc1ccccc1` ; yields the recorded call
inactive

// param item: `NC(=O)c1cccc(N2Cc3ccccc3OC3=C2C(=O)c2c(O)ccc(O)c2C3=O)c1` ; yields the recorded call
inactive

// param item: `COc1cccc2c1-c1ccccc1C2=O` ; yields the recorded call
inactive

====

# Test system: TK-10 renal
# procedure-summary: NCI tumour cell line growth inhibition, 48 h; in the data active = GI50 below about 0.43 µM; inactive = the rest
Allowed answers: active, inactive

The examples below pair each entry with its known result.
molecule: CC(=O)OC[C@]1(C)C=C2C(=O)[C@](C)(O)C3(CC3)C(C)=C2[C@H]1OC(=O)N(C)CCN(C)C(=O)OC(C)(C)C
assigned-label: inactive
--
molecule: C[C@]12CCC3c4ccc(O)cc4CCC3C1CC[C@@]2(O)C#Cc1ccc(C#C/C=C\C#Cc2ccccc2N)cc1 (stereo not given in full)
assigned-label: inactive
--
molecule: FC(F)(F)c1cccc(Nc2nc3ccccc3nc2Nc2cccc(C(F)(F)F)c2)c1
assigned-label: inactive

// param item: `COc1ccc2nc3cc(Cl)ccc3c(NCCCCCN3CCCCC3)c2c1` ; yields the recorded call
inactive

// param item: Clc1ccc(C2c3ccccc3-c3nccn32)c(Cl)c1 (stereo not given) ; yields the recorded call
inactive

// param item: `C[C@@]1(CO)[C@H](O)CC[C@@]2(C)[C@H]1CC[C@H]1C[C@@H]3C[C@@]12CC[C@@]3(O)COC(=O)CN` ; yields the recorded call
inactive

// param item: `COc1ccc2c(c1)C(=O)c1c-2n(CCCNCCO)c(=O)c2ccccc12` ; yields the recorded call
active
